Molecular target: Sodium- and chloride-dependent GABA transporter 2 (Mus musculus)
Sequence (P31649 whole entry): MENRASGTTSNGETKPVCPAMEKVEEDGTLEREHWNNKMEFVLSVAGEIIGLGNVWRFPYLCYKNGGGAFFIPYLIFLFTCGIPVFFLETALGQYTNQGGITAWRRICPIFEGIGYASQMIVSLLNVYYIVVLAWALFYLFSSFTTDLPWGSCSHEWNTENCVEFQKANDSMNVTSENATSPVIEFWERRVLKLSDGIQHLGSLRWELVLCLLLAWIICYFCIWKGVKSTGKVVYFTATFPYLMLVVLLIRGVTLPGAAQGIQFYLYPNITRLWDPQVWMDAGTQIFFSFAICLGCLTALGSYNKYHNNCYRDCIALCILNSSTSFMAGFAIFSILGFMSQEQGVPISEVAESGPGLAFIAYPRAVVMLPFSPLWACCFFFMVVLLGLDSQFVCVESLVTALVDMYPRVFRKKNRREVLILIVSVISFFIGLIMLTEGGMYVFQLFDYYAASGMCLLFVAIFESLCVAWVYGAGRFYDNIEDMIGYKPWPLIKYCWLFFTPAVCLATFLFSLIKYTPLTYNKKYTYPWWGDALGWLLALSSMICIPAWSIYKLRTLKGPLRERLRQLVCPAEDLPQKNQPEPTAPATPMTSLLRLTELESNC
Test: Inhibition of mouse GAT2 expressed in HEK293 cells assessed as decrease in [3H]GABA uptake preincubated for 25 mins followed by [3H]GABA addition measured after 10 mins by liquid scintillation counting analysis
quantity kind: IC50 (µM)
Give a bare numeral; the unit µM is implied.

| compound | target under test | recorded number |
| --- | --- | --- |
| COc1ccc(C(CC#CCN2CCCC(C(=O)O)C2)(c2ccc(OC)cc2)c2ccc(OC)cc2)cc1 (centres undefined) | Sodium- and chloride-dependent GABA transporter 2 (Mus musculus) | 33.9 |
| COc1ccc(C(OCCN2CCCC(C(=O)O)C2)(c2ccc(OC)cc2C)c2ccc(OC)cc2C)cc1 (centres undefined) | Sodium- and chloride-dependent GABA transporter 2 (Mus musculus) | 32.4 |
| COc1ccc(C(C#CCN2CCCC(C(=O)O)C2)(c2ccc(OC)cc2)c2ccc3c(c2)OCO3)cc1 (centres undefined) | Sodium- and chloride-dependent GABA transporter 2 (Mus musculus) | 41.7 |

Let's switch to this compound now.
Form field: reported IC50 of COc1ccc(C(C#CCCN2CCCC(C(=O)O)C2)(c2ccc(OC)cc2)c2ccc(OC)cc2)cc1 (centres undefined)
35.5
